# credit: patent US12569473B2

# testSummary: Cytotoxicity, visual examination, MA-104 cells
# Type: cell-based, African green monkey
# assaySetup: African green monkey, MA-104 cells (embryonic African green monkey kidney), visual examination; MA-104 cells; positive control applied at 0.5-500 μg/ml; unit inferred; read-out: CC50

molecule: NC(=O)c1ncn([C@@H]2O[C@H](CO)[C@@H](O)[C@H]2O)n1 [Ribavirin, reference compound]
CC50 at 6 days [µg/mL]: 340

* * *

# testSummary: Cytotoxicity, neutral red assay, MA-104 cells
# Type: cell-based
# assaySetup: African green monkey, MA-104 cells (embryonic African green monkey kidney), compounds tested at 0.3, 3, 30 and 300 microM, unit inferred
Where a name gives a salt, the structure may show the parent alone.
Recorded CC50 at 6 days values for a group of compounds are listed next.
observationType: CC50 at 6 days

compound: O[C@H]1[C@H](O)[C@@H](O)CN2CC[C@H](O)[C@H]12
result: > 300 µM
--
compound: CCCC(=O)O[C@H]1CN2CC[C@H](O)[C@@H]2[C@@H](O)[C@@H]1O [Celgosivir HCL]
result: > 300 µM

* * *

# testSummary: Cytotoxicity, neutral red assay, HeLa Ohio cells
# Assay type: cell-based
# assaySetup: human, positive control applied at 0.001-1 μg/ml, unit inferred

compound: CCOC(=O)c1ccc(OCCC2CCN(c3ccc(C)nn3)CC2)cc1 [Pirodavir, reference compound]
CC50 at 6 days: > 1 µg/mL

* * *

# testSummary: Cytotoxicity, visual examination, HeLa Ohio cells
# Assay type: cell-based
# assaySetup: human, positive control applied at 0.001-1 μg/ml, unit inferred

compound: CCOC(=O)c1ccc(OCCC2CCN(c3ccc(C)nn3)CC2)cc1 [Pirodavir, reference compound]
CC50 at 6 days: > 1 µg/mL

* * *

# testSummary: Cytotoxicity, visual examination, MA-104 cells
# Assay type: cell-based, African green monkey
# assaySetup: African green monkey, CC50

smilesStructure: O[C@H]1[C@H](O)[C@@H](O)CN2CC[C@H](O)[C@H]12
CC50 at 6 days: > 300 µM

* * *

# testSummary: Cytotoxicity, visual examination, MA-104 cells
# Assay type: cell-based, African green monkey
# assaySetup: African green monkey, MA-104 cells (embryonic African green monkey kidney), RSV studies; text summary over visual and neutral red assays; unit inferred; read-out: CC50
Where a name gives a salt, the structure may show the parent alone.

compound: CCCC(=O)O[C@H]1CN2CC[C@H](O)[C@@H]2[C@@H](O)[C@@H]1O [Celgosivir HCL]
CC50 at 6 days: ≥ 300 µM

* * *

Recorded pEC50 values for a group of compounds are listed next.
# Test system: human rhinovirus-14
# testSummary: CPE inhibition assay, visual examination, human rhinovirus-14
# Assay type: cell-based
# assaySetup: visual examination; HeLa Ohio cells; compounds tested at 0.3, 3, 30 and 300 microM; unit inferred
pEC50: −log10 of the molar value. Counter-ions that a name gives are not always drawn.

compound: CCCC(=O)O[C@H]1CN2CC[C@H](O)[C@@H]2[C@@H](O)[C@@H]1O [Celgosivir HCL]
pEC50: < 3.52
//
compound: O[C@H]1[C@H](O)[C@@H](O)CN2CC[C@H](O)[C@H]12
pEC50: < 3.52

* * *

# testSummary: Cytotoxicity, visual examination, HeLa Ohio cells
# Type: cell-based
# assaySetup: human, compounds tested at 0.3, 3, 30 and 300 microM, unit inferred
Structures can show the parent of a compound that is named as a salt.

compound: CCCC(=O)O[C@H]1CN2CC[C@H](O)[C@@H]2[C@@H](O)[C@@H]1O [Celgosivir HCL]
CC50 at 6 days: > 300 µM

compound: O[C@H]1[C@H](O)[C@@H](O)CN2CC[C@H](O)[C@H]12 [Castanospermine]
CC50 at 6 days: > 300 µM

* * *

# testSummary: Cytotoxicity, neutral red assay, HeLa Ohio cells
# Format: cell-based
# assaySetup: human, compounds tested at 0.3, 3, 30 and 300 microM, unit inferred
Counter-ions that a name gives are not always drawn.
observationType: CC50 at 6 days

compound: CCCC(=O)O[C@H]1CN2CC[C@H](O)[C@@H]2[C@@H](O)[C@@H]1O [Celgosivir HCL]
result: > 300 µM
//
compound: O[C@H]1[C@H](O)[C@@H](O)CN2CC[C@H](O)[C@H]12
result: > 300 µM

* * *

# testSummary: Cytotoxicity, visual examination, MA-104 cells
# Format: cell-based, African green monkey
# assaySetup: African green monkey, MA-104 cells (embryonic African green monkey kidney), visual examination; MA-104 cells; compounds tested at 0.3, 3, 30 and 300 microM; unit inferred; read-out: CC50
Where a name gives a salt, the structure may show the parent alone.

compound: CCCC(=O)O[C@H]1CN2CC[C@H](O)[C@@H]2[C@@H](O)[C@@H]1O [Celgosivir HCL]
CC50 at 6 days: > 300 µM
